Every entry's value here was drawn from the supplement of paper PMC10567573.

B1: P2RY14 (parent)
chain: KKIFKSHLKSSRNSTSVKKKSSRN

Variants of: B1
Experiment: protein stability index of a GFP-peptide fusion (GPS, HEK-293T) (PSI 1-6); higher = more stable;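 further: lentivirally expressed fusions sorted by FACS into six bins by GFP to DsRed ratio, PSI derived from sequencing read proportions per bin multiplied by bin number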
Settings: c terminus: a fixed tail appended
Property: protein stability index

S14L    3.88
S16V    3.82
S22T    4.19
N24H    4.38
R12G    3.87
L8E    4.43
S21G    3.8
K19Q    4

Consider the additional variant presented here.
Quick note, protein stability index for K19P landed at 3.34
